B1: CROP (parent)
chain: VFGRGDNISDVSKFLEDDKWMEE

- Variants of: B1
- experiment-description: protein stability index of a GFP-peptide fusion (GPS, HEK-293T) (PSI 1-6); higher = more stable;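 further: lentivirally expressed fusions sorted by FACS into six bins by GFP to DsRed ratio, PSI derived from sequencing read proportions per bin multiplied by bin number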
- details: c terminus: native
For each record, write down the corresponding protein stability index.
Give bare numbers.

Below: 2 variants and their reported protein stability index.
- seq-string: "VFGRCDNISDVSKFLEDDKWMEE [G5C]"
  protein stability index: 2.27
- seq-string: "VFGRGDNISDVSKFLEDDMWMEE [K19M]"
  protein stability index: 1.21

Please give protein stability index, item by item, for the list that follows.
1. VFGRLDNISDVSKFLEDDKWMEE [G5L]
2. VFGRGDNISDVSKFLEDDHWMEE [K19H]
3. VFGRGDNISDVSKFLPDDKWMEE [E16P]
4. VFGRGDNISDVSKFLEDDKWMEP [E23P]
5. VFQRGDNISDVSKFLEDDKWMEE [G3Q]

1. 2.16
2. 1.91
3. 2.12
4. 3.67
5. 2.11

Please give protein stability index, item by item, for the list that follows.
1. VFGRSDNISDVSKFLEDDKWMEE [G5S]
2. VFGRGDNISDVSKFYEDDKWMEE [L15Y]

[3.13, 2.21]

Please give protein stability index, item by item, for the list that follows.
1. VFGRGDNISDVSKFLSDDKWMEE [E16S]
2. VFGRGDNISDVSKCLEDDKWMEE [F14C]

2.03
3.8
